Documented inhibition across a set of compounds
- target-system: Rac GTPase-activating protein 1 (Homo sapiens)
- method: blockers of MgcRacGAP-driven Rac1 GTP hydrolysis – biochemical, ADP Hunter fluorescence, primary and confirmatory, confirmation (AID 624330);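 also: fluorescence reports GDP produced by GAP-driven GTP hydrolysis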
- measurement-conditions: MgcRacGAP-stimulated Rac1 GTP hydrolysis, at 30 µM, hits give high values, GST-tagged Rac1 F28L mutant substrate
Out of some 340,000 compounds screened, about 2,100 (0.62%) were called active. Only a sample is shown. Potency and affinity values are given separately.

Query: inhibition lookup needed for Cc1c(C)n(CC(O)CNCCO)c2ccccc12 (stereo not given) , thanks.
Result: 18.2% (inactive)

Query: Please do the same for Cc1nc2scc(C)n2c(=O)c1S(=O)(=O)N1CCN(c2ccccc2)CC1 as well.
Result: 1.78% (inactive)

Query: Please do the same for [O-]/[N+](=N\Nc1ccc(Cl)cc1)c1ccccc1 as well.
Result: 9.79% (inactive)

Query: Please do the same for CCN(CC)S(=O)(=O)c1cccc(C(=O)NN2Cc3ccccc3C2=N)c1 as well.
Result: -4.56% (inactive)

Query: Please do the same for O=C(CC(c1ccccc1)c1ccccc1)Nc1ccc(C(=O)O)cc1 as well.
Result: 13.2% (inactive)

Query: Please do the same for CCC1CCCCN1C(=O)CCS(=O)(=O)c1ccc2c(c1)CCN2C(C)=O (stereo not given) as well.
Result: 8.33% (inactive)

Query: Please do the same for CC(=O)Nc1ccc(NC(=O)CC(c2ccccc2)c2ccccc2)cc1 as well.
Result: 11.3% (inactive)

---

Documented inhibition across a set of molecules
- target-system: Rac GTPase-activating protein 1 (Homo sapiens)
- method: blockers of MgcRacGAP-driven Rac1 GTP hydrolysis – biochemical, ADP Hunter fluorescence, primary and confirmatory, confirmation (AID 624330);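 also: fluorescence reports GDP produced by GAP-driven GTP hydrolysis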
- measurement-conditions: MgcRacGAP-stimulated Rac1 GTP hydrolysis, at 30 µM, hits give high values, GST-tagged Rac1 F28L mutant substrate
Hit rate of the full screen: of about 340,000 compounds, about 2,100 (0.62%) were called active. A selection follows. Potency and affinity values are given separately.
Hi! Could you send only the number? It should be in %, unit omitted.

Some molecules with recorded inhibition:
[[record]]
cpd_smiles = "COc1ccc(-c2noc(CCC(=O)NCCCN3CCC(C)CC3)n2)cc1"
test_result = 8.68

[[record]]
cpd_smiles = "O=C(c1nc[nH]c1C(=O)N1CCN(c2ccccc2)CC1)N1CCN(c2ccccc2)CC1"
test_result = 8.08

[[record]]
cpd_smiles = "COC(=O)c1ccc(COC(=O)c2ccccc2OC)cc1"
test_result = -1.87

[[record]]
cpd_smiles = "CCCC(=O)Nc1cc(OC)c(OC)cc1C(=O)O"
test_result = 0.59

[[record]]
cpd_smiles = "Oc1ccc(-c2[nH]ncc2-c2ccc(Br)cc2)c(O)c1"
test_result = 26.8


Query: inhibition lookup needed for CC(=O)c1ccc(NC(=O)C[n+]2cccc(C)c2)cc1 , thanks.
Result: 8.06

---

- target-system: Rac GTPase-activating protein 1 (Homo sapiens) (UniProt Q9H0H5)
- Sequence (Q9H0H5 whole entry, looked up): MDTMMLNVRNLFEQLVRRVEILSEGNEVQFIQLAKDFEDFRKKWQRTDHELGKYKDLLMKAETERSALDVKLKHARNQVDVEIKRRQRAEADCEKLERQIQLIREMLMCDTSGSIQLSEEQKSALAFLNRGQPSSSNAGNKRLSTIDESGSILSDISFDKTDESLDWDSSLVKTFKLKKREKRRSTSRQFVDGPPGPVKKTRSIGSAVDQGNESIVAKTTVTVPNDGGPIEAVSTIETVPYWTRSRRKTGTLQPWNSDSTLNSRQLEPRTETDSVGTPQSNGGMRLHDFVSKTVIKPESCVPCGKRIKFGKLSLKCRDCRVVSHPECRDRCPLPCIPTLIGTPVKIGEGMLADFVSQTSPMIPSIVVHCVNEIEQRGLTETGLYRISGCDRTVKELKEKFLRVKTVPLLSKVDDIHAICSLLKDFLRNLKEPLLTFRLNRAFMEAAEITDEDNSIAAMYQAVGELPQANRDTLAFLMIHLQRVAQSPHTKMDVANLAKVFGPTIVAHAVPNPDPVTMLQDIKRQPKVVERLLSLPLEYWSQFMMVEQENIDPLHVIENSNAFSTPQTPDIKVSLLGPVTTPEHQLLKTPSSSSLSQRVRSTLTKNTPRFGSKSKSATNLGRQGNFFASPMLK
- method: blockers of MgcRacGAP-driven Rac1 GTP hydrolysis – biochemical, ADP Hunter fluorescence, primary and confirmatory, confirmation (AID 624330);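 also: fluorescence reports GDP produced by GAP-driven GTP hydrolysis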
- measurement-conditions: MgcRacGAP-stimulated Rac1 GTP hydrolysis, at 30 µM, hits give high values, GST-tagged Rac1 F28L mutant substrate
The whole screen tested about 340,000 compounds, of which about 2,100 (0.62%) were called active. The list is a sample of the results. Potency and affinity values are given separately.
metric-name: inhibition (%)
Hi! Could you send only the number? It should be in %, unit omitted.

Query: inhibition lookup needed for CC(O)Cn1c(N2CCCC2)nc2c1c(=O)[nH]c(=O)n2C (stereo unspecified) , thanks.
Result: 4.91

Query: Please do the same for COc1ccc(CC(=O)NCCN2CCOCC2)cc1 as well.
Result: -0.23

Query: Please do the same for O=C(Nc1ccncc1)C1CC(=O)N(c2ccccc2)C1 (stereo unspecified) as well.
Result: 0.29

Query: Please do the same for N#Cc1ccccc1NC(=O)CN1CCN(Cc2ccccc2)CC1 as well.
Result: -4.52

Query: Please do the same for O=C(CCCc1cccs1)N1CCN(S(=O)(=O)c2ccccc2Br)CC1 as well.
Result: 8.03

Query: Please do the same for O=C(Nc1cccc(-c2csc(Nc3ccc(Cl)cc3)n2)c1)c1ccccc1 as well.
Result: 2.45

Query: Please do the same for CC1(C)CC(CC(=O)Nc2ccccn2)C(=O)O1 (stereo unspecified) as well.
Result: 3.54

---

- target-system: Rac GTPase-activating protein 1 (Homo sapiens)
- method: blockers of MgcRacGAP-driven Rac1 GTP hydrolysis – biochemical, ADP Hunter fluorescence, primary and confirmatory, confirmation (AID 624330);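 also: fluorescence reports GDP produced by GAP-driven GTP hydrolysis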
- measurement-conditions: MgcRacGAP-stimulated Rac1 GTP hydrolysis, at 30 µM, hits give high values, GST-tagged Rac1 F28L mutant substrate
Screen size: about 340,000 compounds; about 2,100 (0.62%) were called active. These entries were drawn from the full list. Measured potencies and affinities stand elsewhere.
metric-name: inhibition

Some compounds with recorded inhibition:
[[record]]
compound = "CCOC(=O)CC1C(=O)NCCN1C(=S)NC(=O)c1ccccc1OC (centres undefined)"
target_system = "Rac GTPase-activating protein 1 (Homo sapiens)"
metric_name = "inhibition"
test_result = "3.14% (inactive)"

[[record]]
compound = "CC(C)C1Nc2c(O)cc(Cl)c([N+](=O)[O-])c2C2C=CCC21 (centres undefined)"
target_system = "Rac GTPase-activating protein 1 (Homo sapiens)"
metric_name = "inhibition"
test_result = "11.3% (inactive)"

[[record]]
compound = "CCn1cc(C(=O)N2CCN(c3ccccn3)CC2)c2cc(OC)c(OC)cc2c1=O"
target_system = "Rac GTPase-activating protein 1 (Homo sapiens)"
metric_name = "inhibition"
test_result = "-4.67% (inactive)"


For the next question, use this compound.
Query: inhibition lookup needed for O=C(N/N=C/c1ccc2c(c1)OCO2)/C(=C/c1ccc2c(c1)OCO2)NC(=O)c1ccccc1 , thanks.
Result: -2.17% (inactive)

---

Documented inhibition across a set of compounds
- target-system: Rac GTPase-activating protein 1 (Homo sapiens) (UniProt Q9H0H5)
- method: blockers of MgcRacGAP-driven Rac1 GTP hydrolysis – biochemical, ADP Hunter fluorescence, primary and confirmatory, confirmation (AID 624330);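 also: fluorescence reports GDP produced by GAP-driven GTP hydrolysis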
- measurement-conditions: MgcRacGAP-stimulated Rac1 GTP hydrolysis, at 30 µM, hits give high values, GST-tagged Rac1 F28L mutant substrate
Hit rate of the full screen: of about 340,000 compounds, about 2,100 (0.62%) were called active. Only a sample is shown. Potency and affinity values are given separately.

[[record]]
compound = "COc1cc(C2NC(=O)NC(c3ccccc3)=C2C(C)=O)c(Br)c(Br)c1O (stereo not drawn)"
target_system = "Rac GTPase-activating protein 1 (Homo sapiens) (UniProt Q9H0H5)"
test_result = "25.1% (inactive)"

[[record]]
compound = "CCOC(=O)COc1cccc2c(=O)n(CC(N)=O)ccc12"
target_system = "Rac GTPase-activating protein 1 (Homo sapiens) (UniProt Q9H0H5)"
test_result = "3.81% (inactive)"

[[record]]
compound = "CCN(CC)c1ccc(/C=C2\\NC(=O)NC2=O)cc1"
target_system = "Rac GTPase-activating protein 1 (Homo sapiens) (UniProt Q9H0H5)"
test_result = "30.9% (inactive)"

[[record]]
compound = "COc1cc(/C=C2\\SC(=N)N(c3ccc(F)cc3)C2=O)ccc1O"
target_system = "Rac GTPase-activating protein 1 (Homo sapiens) (UniProt Q9H0H5)"
test_result = "20.9% (inactive)"

[[record]]
compound = "CCOC(=O)N1CCN(C(=O)Cc2cccs2)CC1"
target_system = "Rac GTPase-activating protein 1 (Homo sapiens) (UniProt Q9H0H5)"
test_result = "9.5% (inactive)"

[[record]]
compound = "CN(CC(=O)Nc1ccc(Cl)cc1)C1CCCCC1"
target_system = "Rac GTPase-activating protein 1 (Homo sapiens) (UniProt Q9H0H5)"
test_result = "9.37% (inactive)"


Query: inhibition lookup needed for COc1cc(OC)c(OC)cc1/C=C1/C(=O)N=C(N)N1C , thanks.
Result: 0.61% (inactive)

Query: Please do the same for CC(C)Sc1nc2sc(-c3ccccc3)cc2c(=O)n1N as well.
Result: 11.4% (inactive)

Query: Please do the same for O=C(CN1CCOCC1)Nc1ccc2c(c1)OC(F)(F)O2 as well.
Result: 1.95% (inactive)

Query: Please do the same for CCOc1ccc(N2C(=O)C3C(c4ccccc4F)NN(C(=O)c4ccc(C)cc4)C3C2=O)cc1 (stereo not drawn) as well.
Result: -3.94% (inactive)

Query: Please do the same for COc1cccc(CNC(=O)CCS(=O)(=O)c2ccc3c(c2)NC(=O)CO3)c1 as well.
Result: 12.4% (inactive)

Query: Please do the same for COc1ccc(CN(CC(=O)NCc2ccco2)C(=O)CNS(=O)(=O)c2ccc(C)cc2)cc1 as well.
Result: -1.32% (inactive)

Query: Please do the same for CC1(C)OC(=O)C(=CNCCc2ccc(O)cc2)C(=O)O1 as well.
Result: 17.2% (inactive)

Query: Please do the same for COc1ccc(CC(=O)Nc2cc(Cl)ccc2C(=O)O)cc1 as well.
Result: 11% (inactive)

Query: Please do the same for CC(OC(=O)c1cccc(N2C(=O)c3ccccc3C2=O)c1)C(=O)Nc1ccc(N(C)C)cc1 (stereo not drawn) as well.
Result: 5.16% (inactive)

Query: Please do the same for CCCS(=O)(=O)NCc1cn2cccc(C)c2n1 as well.
Result: 4.87% (inactive)

Query: Please do the same for CC(=O)Nc1ccc(NC(=O)C(C)OC(=O)CCN=C2NS(=O)(=O)c3ccccc32)cc1 (stereo not drawn) as well.
Result: 7.31% (inactive)
